Source listed as patent US20210395239A1.

target: hERG channel (Homo sapiens); assay: hERG channel inhibition assay (patch-clamp, CHOhERG cells); conditions: patch-clamp, CHOhERG cells
Sequence (Q12809 whole entry): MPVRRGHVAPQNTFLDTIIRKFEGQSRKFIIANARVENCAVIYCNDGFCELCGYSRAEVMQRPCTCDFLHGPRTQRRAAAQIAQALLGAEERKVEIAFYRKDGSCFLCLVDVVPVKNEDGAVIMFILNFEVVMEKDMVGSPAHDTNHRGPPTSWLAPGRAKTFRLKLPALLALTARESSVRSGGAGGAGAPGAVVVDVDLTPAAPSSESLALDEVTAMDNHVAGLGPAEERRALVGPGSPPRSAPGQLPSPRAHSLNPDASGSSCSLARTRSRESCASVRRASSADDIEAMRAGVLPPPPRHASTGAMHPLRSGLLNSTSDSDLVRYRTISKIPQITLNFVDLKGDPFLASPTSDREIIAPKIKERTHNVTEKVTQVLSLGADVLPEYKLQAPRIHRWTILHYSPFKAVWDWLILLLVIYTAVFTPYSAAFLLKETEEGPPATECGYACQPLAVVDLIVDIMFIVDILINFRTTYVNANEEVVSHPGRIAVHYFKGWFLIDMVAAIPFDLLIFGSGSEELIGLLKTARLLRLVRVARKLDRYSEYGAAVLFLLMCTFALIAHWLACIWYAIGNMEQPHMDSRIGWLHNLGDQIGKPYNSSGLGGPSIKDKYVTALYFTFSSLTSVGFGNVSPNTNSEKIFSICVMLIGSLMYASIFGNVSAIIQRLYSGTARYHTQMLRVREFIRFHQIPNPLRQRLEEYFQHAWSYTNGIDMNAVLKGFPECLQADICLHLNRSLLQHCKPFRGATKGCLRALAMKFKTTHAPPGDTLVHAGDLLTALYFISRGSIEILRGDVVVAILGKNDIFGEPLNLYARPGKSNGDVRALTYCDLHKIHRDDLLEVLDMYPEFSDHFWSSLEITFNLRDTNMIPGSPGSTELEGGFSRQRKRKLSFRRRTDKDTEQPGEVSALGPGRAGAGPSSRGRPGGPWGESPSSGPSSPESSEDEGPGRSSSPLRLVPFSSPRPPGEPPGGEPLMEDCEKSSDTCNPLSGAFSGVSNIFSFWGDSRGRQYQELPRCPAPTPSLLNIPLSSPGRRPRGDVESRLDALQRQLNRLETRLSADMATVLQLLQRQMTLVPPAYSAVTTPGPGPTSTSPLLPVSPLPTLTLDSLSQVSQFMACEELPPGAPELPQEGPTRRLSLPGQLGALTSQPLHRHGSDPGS
pIC50: −log10 of the molar value.
QUANTITY MEASURED: pIC50

Fill in the recorded pIC50 for this compound, with hERG channel (Homo sapiens) as test system: CO[C@@H]1CN(c2ccc(N3CCN(C[C@H]4CN(c5ccc(C#N)n6ncc(F)c56)C[C@@H](C)O4)CC3)cn2)C[C@H]1N < 4.70

Cool, now [2H]c1ccc2c(N3C[C@H](CN4CCN(c5nc(C)cc(N6C[C@@H](N)[C@H](OC)C6)n5)CC4)O[C@H](C)C3)ccc(C#N)c2n1 < 4.70

Similarly, [2H]c1nc2c(C#N)ccc(N3C[C@H](CN4CCN(c5nc(C)cc(N6CC(N)C6)n5)CC4)O[C@H](C)C3)c2nc1[2H] ? < 4.70
